Each recorded value in this set is attributed to the supplement of paper PMC11780869.

- Tested on: Bacillus subtilis
- TEST METHOD NOTES: cleaved RNA product abundance (RNA/gDNA barcode ratio) relative to median wild-type variant (ratio to wild type); higher = more accumulation of the downstream cleavage product
- PARTICULARS: experiment (reporter, strain, medium): exp 4a: truncated aprE reporter, strain BJT201 with 2% xylose (RNase J1 expressed); cleavage site: cggR-gapA (positions -7 to +36 mutated)
Readings of cleaved RNA product abundance for the listed sequences
Give the value as a plain number.

Worked examples follow.
- ACAGACGAAGGAGCCGCAAAGAAGTTATTAAGGGATGAATAATCCCTCAATATAAATATCTCTCATTATTTAAAG: 1.05
- ACAGACGAAGGAGCCGCAAAGAAGTTATTAAGGGATGAATCATCCCTCAAGATAAATATCTCTCACTTATTTAAA: 0.27
- ACAGACGAAGGAGCCGCAAAGAAGATATTAAGGGATGAATAATCCCTTAATATAAATATCTCTCACTTATTTAAA: 0.192

Now for another entry.
So, "ACAGACGAAGGAGCCGCAAAAAAGTTATTAAGGGATGAATAATTCCTCAATATAAATATCTCTCACTTATTTAAA" ? Its cleaved RNA product abundance was 0.814

----------
Property: cleaved RNA product abundance; scope: individual sequences
- System: Bacillus subtilis
- TEST METHOD NOTES: cleaved RNA product abundance (RNA/gDNA barcode ratio) relative to median wild-type variant (ratio to wild type); higher = more accumulation of the downstream cleavage product
- PARTICULARS: experiment (reporter, strain, medium): exp 4a: truncated aprE reporter, strain BJT201 with 2% xylose (RNase J1 expressed); cleavage site: cggR-gapA (positions -7 to +36 mutated)
Field format: numeric only.

Some solved entries appear below for comparison.
• ACAGACGAAGGAGCCGCAAAGAAGTTAATAAGGGATCAATAATCCCTCAATATAAATATCTCTCACTTATTTAAA = 0.316
• ACAGACGAAGGAGCCGCAAAGAAATTATTAAAAGATGAATAATCCCTCAATATAAATATCTCTCACTTATTTAAA = 0.083
• ACAGACGAAGGAGCCGCAAAGAAGTTATTCAAGGATGAATAATCCCTCAATATAAATATCTCTCACTTATTTAAA = 0.242

Kindly review the next sequence as well.
Measured cleaved RNA product abundance of "ACAGACGAAGGAGCCGCAAAGAAATTATTAAGGGATGAATAAGCCCTCAATATAAATATCTCTCACTTATTTAAA" : 0.416

----------
Readings of cleaved RNA product abundance for the listed sequences
- Tested on: Bacillus subtilis
- TEST METHOD NOTES: cleaved RNA product abundance (RNA/gDNA barcode ratio) relative to median wild-type variant (ratio to wild type); higher = more accumulation of the downstream cleavage product
- PARTICULARS: experiment (reporter, strain, medium): exp 2b: truncated aprE reporter, strain BJT200; cleavage site: cggR-gapA (positions -7 to +36 mutated)
Give the value as a plain number.

Worked examples, 3 sequences total:
- ACAGACGAAGGAGCCGCAAAGAAGTTATTAACGGATGAATTATCCCTCAATATAAATATCTCTCACTTATTTAAA: 0.12
- ACAGACGAAGGAGCCGCAAAAAAGTTATTAAGGGATGAATAATCCCTCAATATGAATATCTCTCACTTATTTAAA: 0.135
- ACAGACGAAGGAGCCGCAAAGAAGTTATTAAGGCATGAATAATCCCTCACTATAAATATCTCTCACTTATTTAAA: 0.083

The recorded cleaved RNA product abundance for entry "ACAGACGAAGGAGCCGCAAAGAAGTTATTAAGGGTTGAATAATCCCTCAATATAAATATCTCTCACTTATTTAAA" equals 0.396

Per the record, "ACAGACGAAGGAGCCGCAAAGAAGTTATTAAGGGATTAATAATCCCACAATATAAATATCTCTCACTTATTTAAA" has cleaved RNA product abundance of 0.238

According to the records, this sequence "ACAGACGAAGGAGCCGCATAGAAGTTATTAAGGGATGAATAATCCTTCAATATAAATATCTCTCACTTATTTAAA" displays cleaved RNA product abundance of 0.516

Record "ACAGACGAAGGAGCCGCAAAGAAGTTATTAAGGGACGAATAATTCCTCAATATAAATATCTCTCACTTATTTAAA" , field cleaved RNA product abundance: 0.126

"ACAGACGAAGGAGCCGCAAAGAAGTTATTAAGGGAATAATAATCCCTCAATATAAATATCTCTCACTTATTTAAA" has a reported cleaved RNA product abundance of 0.811

Entry under test: "ACAGACGAAGGAGCCGCAAAGAAGTTATTAAGGCATGAATAATCCCTCAACATAAATATCTCTCACTTATTTAAA" . Its cleaved RNA product abundance was 0.119

So for "ACAGACGAAGGAGCCGCAAAGAAGTTATTAAGGGAGGAATAATCCCTAAATATAAATATCTCTCACTTATTTAAA" , the logged cleaved RNA product abundance turned out to be 0.404

The recorded cleaved RNA product abundance for entry "ACAGACGAAGGAGCCGCAAAGAAGTTATAAAGGGATGAATAATCCCTCAATATATATATCTCTCACTTATTTAAA" equals 0.359

response.value for "ACAGACGAAGGAGCCGCAAAGAAGTTATTAACGGATGAAAAATCCCTCAATATAAATATCTCTCACTTATTTAAA" (field: cleaved RNA product abundance) = 0.104

The recorded cleaved RNA product abundance for "ACAGACGAAGGAGCCGCATAGAAGTTATTAAGGGATGAATAATCCCCCAATATAAATATCTCTCACTTATTTAAA" is 0.247

Value of cleaved RNA product abundance reported for the sequence "ACAGACGAAGGAGCCGCAAATAAGTTATTAAGGGATGATTAATCCCTCAATATAAATATCTCTCACTTATTTAAA" is 0.783

Measured cleaved RNA product abundance of "ACAGACGAAGGAGCCGCAAAGAAATTATTAAGGGATGAATAATCCCTCAATATAAATATCTCTCACTTATTTAAA" : 0.826

// cleaved RNA product abundance value for "ACAGACGAAGGAGCCGCAAAGAAGTGATTAAGCGATGAATAATCCCTCAATATAAATATCTCTCACTTATTTAAA" : 0.115

The recorded cleaved RNA product abundance for "ACAGACGAAGGAGCCGCAAAGAAGTTATTAAAGGATGAATTATCCCTCAATATAAATATCTCTCACTTATTTAAA" is 0.14

The recorded cleaved RNA product abundance for entry "ACAGACGAAGGAGCCGCAAAGAAGGTATTAAGGGATGAAAAATCCCTCAATATAAATATCTCTCACTTATTTAAA" equals 1.25

The sequence identified as "ACAGACGAAGGAGCCGCAAAGAAGTTATTAAGCGATGAATAATCCATCAATATAAATATCTCTCACTTATTTAAA" registered its cleaved RNA product abundance at 0.121

// sample "ACAGACGAAGGAGCCGCAAATAAGTTATTAAGGGAAGAATAATCCCTCAATATAAATATCTCTCACTTATTTAAA" , its cleaved RNA product abundance was 0.497

What the record says about "ACAGACGAAGGAGCCGCAAAGAAGTTATTAAGGGATGTATAATCCCTCAGTATAAATATCTCTCACTTATTTAAA" : cleaved RNA product abundance is 0.218

Recorded result, "ACAGACGAAGGAGCCGCAAAGAAGTAAGTAAGGGATGAATAATCCCTCAATATAAATATCTCTCACTTATTTAAA" , cleaved RNA product abundance: 0.212

response.value for "ACAGACGAAGGAGCCGCAAAGAATTTATTAAGGGATGCATAATCCCTCAATATAAATATCTCTCACTTATTTAAA" (field: cleaved RNA product abundance) = 0.535

Looking up "ACAGACGAAGGAGCCGCAAAGAATTTATTACGGGATGAATAATCCCTCAATATAAATATCTCTCACTTATTTAAA" , I found its cleaved RNA product abundance recorded as 0.303

Entry under test: "ACAGACGAAGGAGCCGCAAAGAAGTTATTAAAGGATGAATAATCCCTCAATATGAATATCTCTCACTTATTTAAA" . Its cleaved RNA product abundance was 0.094

Memo: "ACAGACGAAGGAGCCGCAAAGAAGTTATTAAGGGATCAATAATCCCTCAATATAATTATCTCTCACTTATTTAAA" , reported cleaved RNA product abundance: 0.468

Note to self: cleaved RNA product abundance recorded for "ACAGACGAAGGAGCCGCAAAGAAGTTATTAAAGGATGAAAAATCCCTCAATATAAATATCTCTCACTTATTTAAA" was 0.104

Quick note, cleaved RNA product abundance for "ACAGACGAAGGAGCCGCAAAGAAGTTATTAAGGGATGATTAATCCCTCAATATTAATATCTCTCACTTATTTAAA" landed at 0.164

// recorded cleaved RNA product abundance for "ACAGACGAAGGAGCCGCAAAGAAGTTATTTAGGGATAAATAATCCCTCAATATAAATATCTCTCACTTATTTAAA" : 0.577

The reported value for "ACAGACGAAGGAGCCGCAAAGAAGTTATTAAGGGATGAATAATCCCTAATTATAAATATCTCTCACTTATTTAAA" in terms of cleaved RNA product abundance is 0.365
